Each entry below carries its reported λcrit.
Assay: Critical wavelength (λcrit), approximate in-house measurement
Format: physicochemical
Settings: Table 3
Just the number in nm, nothing appended.

Here are 5 compounds together with their reported answers.
CC1(C)CCN(C(C)(C)C)C=C1C(=O)NCCCCCCNC(=O)C1=CN(C(C)(C)C)CCC1(C)C [drawing 59] = 314
Cc1ccc(S(=O)(=O)NC(=O)C2=CN(C(C)(C)C)CCC2(C)C)cc1 [drawing 64] = 319
CC1(C)CCN(C(C)(C)C)C=C1C(=O)Nc1cccc(NC(=O)C2=CN(C(C)(C)C)CCC2(C)C)c1 [drawing 66] = 328
CC1(C)CCN(C(C)(C)C)C=C1C(=S)Nc1ccccc1 [drawing 60] = 387
CC1(C)CCN(C(C)(C)C)C=C1C(=O)Nc1ccc(Cc2ccc(NC(=O)C3=CN(C(C)(C)C)CCC3(C)C)cc2)cc1 [drawing 63] = 328

The record that follows has no λcrit shown yet.
[ask] Look up λcrit: CC1(C)CCN(C(C)(C)C)C=C1C(=O)Nc1ccc(NC(=O)C2=CN(C(C)(C)C)CCC2(C)C)cc1 [drawing 65]
[reply] 346
